B1: library; a variant is named by its letters at N, in order (parent)
chain: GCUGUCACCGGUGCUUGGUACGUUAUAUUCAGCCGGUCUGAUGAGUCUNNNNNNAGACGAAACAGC

Variants of: B1
Assay: FACS-Seq fitted mean relative fluorescence mCherry/BFP with ligand (log10 relative fluorescence); HEK293T overexpressing SLC46A1; ligand concentration (+) FACS-Seq: 6 mM; higher = higher reporter protein expression
Conditions: with (6R,S)-folinic acid; ligand present: yes
# thresholds on FACS-Seq fitted mean (log10) define classes: interval 1 = under 0.3, interval 2 = from 0.3 up to 0.5, interval 3 = 0.5 and over

# residueString, label
data = [
    ("GCUGUCACCGGUGCUUGGUACGUUAUAUUCAGCCGGUCUGAUGAGUCUAAGUUAAGACGAAACAGC [AAGUUA]", "interval 2"),
    ("GCUGUCACCGGUGCUUGGUACGUUAUAUUCAGCCGGUCUGAUGAGUCUUCAGGUAGACGAAACAGC [UCAGGU]", "interval 3"),
    ("GCUGUCACCGGUGCUUGGUACGUUAUAUUCAGCCGGUCUGAUGAGUCUACACGAAGACGAAACAGC [ACACGA]", "interval 1"),
    ("GCUGUCACCGGUGCUUGGUACGUUAUAUUCAGCCGGUCUGAUGAGUCUAGACCAAGACGAAACAGC [AGACCA]", "interval 1"),
    ("GCUGUCACCGGUGCUUGGUACGUUAUAUUCAGCCGGUCUGAUGAGUCUCAAGAGAGACGAAACAGC [CAAGAG]", "interval 2"),
    ("GCUGUCACCGGUGCUUGGUACGUUAUAUUCAGCCGGUCUGAUGAGUCUUAAGCGAGACGAAACAGC [UAAGCG]", "interval 3"),
    ("GCUGUCACCGGUGCUUGGUACGUUAUAUUCAGCCGGUCUGAUGAGUCUUGCUCUAGACGAAACAGC [UGCUCU]", "interval 1"),
    ("GCUGUCACCGGUGCUUGGUACGUUAUAUUCAGCCGGUCUGAUGAGUCUCAGAUAAGACGAAACAGC [CAGAUA]", "interval 3"),
    ("GCUGUCACCGGUGCUUGGUACGUUAUAUUCAGCCGGUCUGAUGAGUCUUUGCAGAGACGAAACAGC [UUGCAG]", "interval 3"),
    ("GCUGUCACCGGUGCUUGGUACGUUAUAUUCAGCCGGUCUGAUGAGUCUUGAGUGAGACGAAACAGC [UGAGUG]", "interval 3"),
    ("GCUGUCACCGGUGCUUGGUACGUUAUAUUCAGCCGGUCUGAUGAGUCUUGAUUGAGACGAAACAGC [UGAUUG]", "interval 3"),
    ("GCUGUCACCGGUGCUUGGUACGUUAUAUUCAGCCGGUCUGAUGAGUCUAGACGCAGACGAAACAGC [AGACGC]", "interval 2"),
    ("GCUGUCACCGGUGCUUGGUACGUUAUAUUCAGCCGGUCUGAUGAGUCUCUAAUAAGACGAAACAGC [CUAAUA]", "interval 2"),
    ("GCUGUCACCGGUGCUUGGUACGUUAUAUUCAGCCGGUCUGAUGAGUCUUUGGAAAGACGAAACAGC [UUGGAA]", "interval 3"),
    ("GCUGUCACCGGUGCUUGGUACGUUAUAUUCAGCCGGUCUGAUGAGUCUUCGGUGAGACGAAACAGC [UCGGUG]", "interval 1"),
    ("GCUGUCACCGGUGCUUGGUACGUUAUAUUCAGCCGGUCUGAUGAGUCUGUACUUAGACGAAACAGC [GUACUU]", "interval 2"),
    ("GCUGUCACCGGUGCUUGGUACGUUAUAUUCAGCCGGUCUGAUGAGUCUGGGCAUAGACGAAACAGC [GGGCAU]", "interval 1"),
    ("GCUGUCACCGGUGCUUGGUACGUUAUAUUCAGCCGGUCUGAUGAGUCUAAUCUUAGACGAAACAGC [AAUCUU]", "interval 1"),
    ("GCUGUCACCGGUGCUUGGUACGUUAUAUUCAGCCGGUCUGAUGAGUCUGAUGUGAGACGAAACAGC [GAUGUG]", "interval 3"),
    ("GCUGUCACCGGUGCUUGGUACGUUAUAUUCAGCCGGUCUGAUGAGUCUGUGAAUAGACGAAACAGC [GUGAAU]", "interval 1"),
    ("GCUGUCACCGGUGCUUGGUACGUUAUAUUCAGCCGGUCUGAUGAGUCUGCGCUAAGACGAAACAGC [GCGCUA]", "interval 3"),
]
